- targetDesc: alpha-thrombin (Homo sapiens, UniProt P00734)
- assayInfo: inhibition of S-2238 hydrolysis, Kiapp versus substrate concentration regression

| binder | Ki |
| --- | --- |
| KPVEAEVAQPKLYQRGEGGNGMEPIPEDVLNEALNA [XC-43 mature peptide] | 7.7 pM |

From: paper PMC8573170
